# Lookup of reported pKd keyed by entry
molecular target: T1, recombinant human ErbB3 monomeric protein (cleaved rhErbB3) (human, UniProt P21860 20-643, limits assumed); test: SPR Biacore 37 C; supernatant antibody captured on anti-human Fc, cleaved rhErbB3 injected
T1 construct: Monomer made by protease cleavage of the Fc fusion; also called Monomeric ErbB3
Note: pKd values are expressed as the negative base-10 logarithm of concentration in M.

Below, 2 binders whose answers are already recorded.
[[record]]
binder = "Sh24C05-40 (antibody, human IgG1, kappa, V domains shown, Humanized, human IgG1/kappa) VH: EVQLLESGGGLVQPGGSLRLSCAASGFTFSDYAMSWVRQAPGKGLEWVSTISDGGTYTYYPDNVKGRFTISRDNSKNTLYLQMNSLRAEDTAVYYCAREWGDYDGFDYWGQGTLVTVSS VL: DIQLTQSPSFLSASVGDRVTITCRASQEISGYLSWYQQKPGKAPKLLIYAASTLDSGVPSRFSGSGSGTEFTLTISSLQPEDFATYYCLQYDSYPYTFGQGTKLEIKR"
attribute_measured = "pKd"
endpoint_value = 9.30

[[record]]
binder = "Sh24C05-28 (antibody, human IgG1, kappa, V domains shown, Humanized, human IgG1/kappa) VH: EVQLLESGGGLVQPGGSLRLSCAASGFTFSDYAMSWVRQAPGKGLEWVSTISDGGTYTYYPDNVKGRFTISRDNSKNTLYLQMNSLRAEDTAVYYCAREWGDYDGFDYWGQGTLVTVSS VL: DIQMTQSPSSLSASVGDRVTITCRASQEISGYLSWYQQKPGKAPKRLIYAASTLDSGVPSRFSGSGSGTEFTLTISSLQPEDFATYYCLQYDSYPYTFGQGTKLEIKR"
attribute_measured = "pKd"
endpoint_value = 9.72


# next binder below
pKd measured on Sh24C05-35 (antibody, human IgG1, kappa, V domains shown, Humanized, human IgG1/kappa) VH: QVQLVESGGGVVQPGRSLRLSCAASGFTFSDYAMSWVRQAPGKGLEWVATISDGGTYTYYPDNVKGRFTISRDNSKNTLYLQMSSLRAEDTAVYYCAREWGDYDGFDYWGQGTLVTVSS VL: DIQMTQSPSSLSASVGDRVTITCRASQEISGYLSWYQQKPGKAPKLLIYAASTLDSGVPSRFSGSGSGTDFTFTISSLQPEDIATYYCLQYDSYPYTFGQGTKLEIKR = 9.18
